# credit: patent US8828929B2

System: peptide-specific CTLs (IFN-γ-positive cells among CD8-positive cells)
Parameters: species or system HLA-A2 transgenic mouse
Details: mouse, in vivo, iv
Where no end group is shown, it is not given here.
Provide the recorded ICS (% in CD8+ cells) for the entries that follow.

>  <Residues>
QLSLPVLQV [pp1a-15]

>  <ICS (% in CD8+ cells)>
0.05%

$$$$

Give ICS (% in CD8+ cells) for each of the items listed below.
1. MLSRALKKV [pp1a-1288]
2. VLLSVLQQL [pp1a-3848]
3. LLFITGNTL [pp1a-3745]
4. SLQVCVQTV [pp1a-1139]
5. TLGVLVPHV [pp1a-103]
6. MLLTFLTSL [pp1a-3560]
7. KLSAGVEFL [pp1a-634]

1: 0.05%; 2: 0.07%; 3: 0.03%; 4: 0.07%; 5: 0.07%; 6: 0.04%; 7: 0.08%

Give ICS (% in CD8+ cells) for each of the items listed below.
1. VLGSLAATV [pp1a-4219]
2. YLSSVLLAL [pp1a-1652, YLSSVLLAL]
3. KLNIKLLGI [pp1a-3816]

["0.01%", "0.05%", "0.07%"]

* * *

Molecular target: HLA-A*0201 (Homo sapiens, UniProt P04439, D140Y/D185E/D98H/E176V/E277Q/G131W/G231S/I119V/I121R/I166T/I218V/L300P/L318F/N151K/N90K/P208A/P217A/Q86G/Q94H/R138H/R169H/T345S)
Construct: endogenous in cells; host or cells: T2 cells (human lymphoid, TAP-deficient)
Assay: cell-based
Format: binding
Where no end group is shown, it is not given here.
Provide the recorded EC50 for the entries that follow.
Quick note: number first, unit second.

Known EC50 results, listed for orientation:
>  <Residues>
MLLTFLTSL [pp1a-3560]

>  <Value Measured>
47.1 µM

$$$$
>  <Residues>
QLSLPVLQV [pp1a-15]

>  <Value Measured>
75.7 µM

$$$$
>  <Residues>
KLSAGVEFL [pp1a-634]

>  <Value Measured>
59.8 µM

$$$$

Give EC50 for each of the items listed below.
1. MLSRALKKV [pp1a-1288]
2. CLDAGINYV [pp1a-2187]
3. SLQVCVQTV [pp1a-1139]
4. YLSSVLLAL [pp1a-1652, YLSSVLLAL]

1. 65.1 µM
2. 3 µM
3. 4.9 µM
4. 6.7 µM

Give EC50 for each of the items listed below.
1. VLGSLAATV [pp1a-4219]
2. TLGVLVPHV [pp1a-103]
3. KLNIKLLGI [pp1a-3816]
4. ILLLDQVLV [pp1a-2546]

["53.3 µM", "3.1 µM", "68.1 µM", "7.6 µM"]

* * *

Target: HLA-A*0201 (Homo sapiens, UniProt P04439, D140Y/D185E/D98H/E176V/E277Q/G131W/G231S/I119V/I121R/I166T/I218V/L300P/L318F/N151K/N90K/P208A/P217A/Q86G/Q94H/R138H/R169H/T345S)
Construct: endogenous in cells; host or cells: T2 cells (human lymphoid, TAP-deficient)
Experiment: cell-based
Format: binding
Where no end group is shown, it is not given here.
Outcome Measure: EC50
Quick note: number first, unit second.

Known EC50 results, listed for orientation:
>  <Residues>
VLLSVLQQL [pp1a-3848]

>  <Outcome Measure>
EC50

>  <Value Measured>
102 µM

$$$$
>  <Residues>
LLCVLAALV [pp1a-2755]

>  <Outcome Measure>
EC50

>  <Value Measured>
187 µM

$$$$
>  <Residues>
LLFITGNTL [pp1a-3745]

>  <Outcome Measure>
EC50

>  <Value Measured>
154 µM

$$$$

Query sequence follows.
# EC50 lookup, item ALSGVFCGV [pp1a-2990]
6.2 µM
